Assay: AUC (0 to t) in CD1 mouse at 1 mg/kg, iv
Format: ADME, organism-based
Parameters: dose 1 mg/kg, route intravenous
Details: plasma

| GIVEN_SMILES | AUC(0-t), ng·h/mL |
| --- | --- |
| COCCN1CCc2cc(Nc3ncc(Cl)c(N[C@@H]4CCCC[C@H]4NS(C)(=O)=O)n3)c(OC)cc2CC1 | 2930 |

###

Experiment: Clearance in CD1 mouse at 1 mg/kg, iv
Type: ADME, organism-based
Set-up: dose 1 mg/kg, route intravenous
Settings: in vivo

| GIVEN_SMILES | clearance (mL/min/kg) |
| --- | --- |
| COCCN1CCc2cc(Nc3ncc(Cl)c(N[C@@H]4CCCC[C@H]4NS(C)(=O)=O)n3)c(OC)cc2CC1 | 5.6 |
